Assay: MTT cytotoxicity assay
Format: cell-based, human
Conditions: human, HEK293T cells, HEK293T, 12.5 µM; read-out: OD450, cytotoxicity (Fig 2a), replicates
Description: To determine the cytotoxicity of the peptides, we used the MTT (3-(4,5)-dimethylthiahiazo (-z-y1)-3,5-di-phenytetrazoliumromide) dye reduction assay against HEK293T cells. In brief, the 100 μL of cells in 96-well plate were incubated for 24 h at 37 °C, 5% CO2, and then peptide solutions (concentrations ranging from 100 to 0.39 μM) were added and further incubated for 72 h. MTT solution (5 mg/mL) was added and further incubated for 4 h. […]
Residues, ends and D or L forms follow the SMILES beside them.
property: viability at 72 h, 12.5 µM (%)
Use % as the unit, but write only the number.

Recorded results for 2 molecules are shown here.
CC[C@H](C)[C@H](NC(=O)[C@H](CCCNC(=N)N)NC(=O)[C@H](CCCNC(=N)N)NC(=O)[C@H](CC(C)C)NC(=O)[C@H](Cc1ccccc1)NC(=O)[C@H](CCCNC(=N)N)NC(=O)[C@@H](N)CCCNC(=N)N)C(=O)N[C@@H](Cc1ccccc1)C(=O)N[C@@H](Cc1ccccc1)C(=O)N[C@@H](Cc1ccccc1)C(=O)N[C@@H](Cc1ccccc1)C(N)=O [HT3] (H-RRFLRRIFFFF-NH2; N-terminus assumed) | 94.4
CC[C@H](C)[C@H](NC(=O)[C@H](CCCNC(=N)N)NC(=O)[C@H](CCCNC(=N)N)NC(=O)[C@H](CC(C)C)NC(=O)[C@H](Cc1ccccc1)NC(=O)[C@@H](N)CCCNC(=N)N)C(=O)N[C@@H](Cc1ccccc1)C(=O)N[C@@H](Cc1ccccc1)C(=O)N[C@@H](Cc1ccccc1)C(=O)N[C@@H](Cc1ccccc1)C(N)=O [HT2] (H-RFLRRIFFFF-NH2) | 92.8

molecule CC[C@H](C)[C@H](NC(=O)[C@H](CCCNC(=N)N)NC(=O)[C@H](CO)NC(=O)[C@H](CC(C)C)NC(=O)[C@H](Cc1ccccc1)NC(=O)[C@H](Cc1ccccc1)NC(=O)[C@@H](N)Cc1ccccc1)C(=O)N[C@@H](Cc1ccccc1)C(N)=O [SHf] (H-FFFLSRIF-NH2; N-terminus assumed) , viability at 72 h, 12.5 µM observed: 93.4
